tested on: Trypanosoma brucei; assay: DNDI: Inhibition of Human African Trypanosomiasis, SBRI 427, in vitro at 2 ug.mL-1; format: functional
Among all 4,400 compounds or so, about 390 (8.9%) showed an effect of 50% or more. Shown is part of a subset that was picked to be rich in strong results.
Test Readout: % inhibition (%)
Numbers only; they are read as %.

Guide cases for % inhibition, answers given:
Task: % inhibition for O/N=C(\NCc1ccncc1)c1ccnc(Oc2ccc(F)c(F)c2)c1 ?
Result: 8

Task: Given COc1ccc(-c2nc(CNCCc3ccccc3OC)co2)cc1 , state its recorded % inhibition.
Result: -4

Task: Record request: % inhibition value, item CC(C)c1ccc(N/C(=N\O)c2ccnc(Oc3ccc(F)c(F)c3)c2)cc1
Result: 22

Task: Query (compound): CCC(CC)N/C(=N\O)c1cccnc1Oc1ccccc1OC ; field requested: % inhibition
Result: 76

Task: For the compound shown here, CCN(CC)c1cccc(Oc2ncccc2/C(=N/O)N2CCCC2)c1 , give the reported % inhibition.
Result: -7

New cases:
Task: Query: % inhibition; subject: CC(C)(C)CN/C(=N\O)c1ccnc(Oc2ccc(F)c(Cl)c2)c1
Result: 96

Task: Reported % inhibition, compound COc1ccccc1CN/C(=N\O)c1ccc(C)nc1OC1CCC1 : ____
Result: 6

Task: Any idea what % inhibition was measured for C#CC(CC)(CC)NCc1coc(-c2ccc(OC)cc2)n1 ?
Result: -8
